Reference for the values: patent US20230322924A1

# systemName: T1, human CD3 on human T cells (human, UniProt P07766 23-207)
# T1 construct: Native TCR-CD3 complex on cells; also called primary human T cells; human pan T cells
# T1 sequence (P07766 23-207 limits assumed): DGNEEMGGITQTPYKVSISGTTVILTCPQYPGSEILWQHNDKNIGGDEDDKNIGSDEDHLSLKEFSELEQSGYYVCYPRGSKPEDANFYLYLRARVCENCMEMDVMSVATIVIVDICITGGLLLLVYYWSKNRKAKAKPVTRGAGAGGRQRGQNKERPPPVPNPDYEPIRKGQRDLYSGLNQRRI
# protocolText: flow cytometry, Jurkat CD3+ (E6-1)
Please provide measured geomean for the entries that follow.

BLX-1F8 (antibody, V domains shown, OmniRat hybridoma supernatant: human V regions on rat constant regions; also called V regions cloned as CD3B314 (CD3H220/CD3L126)) VH: QVQLQQSGPGLVKPSQTLSLTCAISGDSVFNNNAAWSWIRQSPSRGLEWLGRTYYRSKWLYDYAVSVKSRITVNPDTSRNQFTLQLKSVTPEDTALYYCSRGYSSSFDYWGQGTLVTVSS VL: QSALTQPASVSGSPGQSITISCTGTSSDIGTYKFVSWYQQHPDKAPKVLLYEVSKRPSGVSSRFSGSKSDNTASLTISGLQAEDQADYHCCSYAGSGTLLFGGGTKLTVL    148000 geometric mean fluorescence
BLW-2B4 (antibody, V domains shown, OmniRat hybridoma supernatant: human V regions on rat constant regions; also called V regions cloned as CD3B311 (CD3H218/CD3L123)) VH: QVQLQQSGPGLVKPSQTLSLTCAISGDSVFNNNAAWSWIRQSPSRGLEWLGRTYYRSKWLYDYAVSVKSRITVNPDTSRNQFTLQLNSVTPEDTALYYCVRGYSSSFDYWGQGTLVTVSS VL: QSALTQPASVSGSPGQSITISCTGTSRDIGTYKFVSWYQQHPDKAPKVLLYEVNKRPSGVSSRFSGSKSGNTASLTISGLQAEDQADYHCCSYAGSGTLLFGGGTKLTVL    148000 geometric mean fluorescence
BLX-2E9 (antibody, V domains shown, OmniRat hybridoma supernatant: human V regions on rat constant regions; also called V regions cloned as CD3B315 (CD3H221/CD3L124)) VH: QVQLQQSGPGLVKPSQTLSLTCAISGDSVFNNNGAWSWIRQSPSRGLEWLGRTYYRSKWLYDYAVSVKSRITVNPDTSRNQFTLQLNSVTPEDTALYYCARGYSSSFDYWGQGTLVTVSS VL: QSALTQPASVSGSPGQSITISCTGTSSNIGTYKFVSWYQQHPDKAPKVLLYEVSKRPSGVSSRFSGSKSGNTASLTISGLQAEDQADYHCCSYAGSGTLLFGGGTKLTVL    199000 geometric mean fluorescence

Batch: geomean for all items listed.
1. BLW-2E6 (antibody, V domains shown, OmniRat hybridoma supernatant: human V regions on rat constant regions; also called V regions cloned as CD3B312 (CD3H219/CD3L124)) VH: QVQLQQSGPRLVRPSQTLSLTCAISGDSVFNNNAAWSWIRQSPSRGLEWLGRTYYRSKWLYDYAVSVKSRITVNPDTSRNQFTLQLNSVTPEDTALYYCARGYSSSFDYWGQGTLVTVSS VL: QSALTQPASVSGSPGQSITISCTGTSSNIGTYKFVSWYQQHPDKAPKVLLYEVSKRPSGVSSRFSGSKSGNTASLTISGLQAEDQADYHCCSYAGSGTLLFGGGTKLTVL
2. BLX-3F4 (antibody, V domains shown, OmniRat hybridoma supernatant: human V regions on rat constant regions; also called V regions cloned as CD3B316 (CD3H222/CD3L124)) VH: QVRLQQSGPGLVKPSQTLSLTCAISGDSVFNNNAAWSWIRQSPSRGLEWLGRTYYRSKWLYDYAVTVKSRITVNPDTSRNQFTLQLTSVTPEDTALYYCARGYSSSFDYWGQGTLVTVSS VL: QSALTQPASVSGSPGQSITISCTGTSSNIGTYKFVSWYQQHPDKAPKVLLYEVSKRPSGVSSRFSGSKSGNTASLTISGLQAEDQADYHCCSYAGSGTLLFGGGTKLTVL

Return:
1. 7500 geometric mean fluorescence
2. 182000 geometric mean fluorescence
